assay: Cell viability by MTT test; assay type: cell-based, rat; settings: rat; 5 mM palmitic acid, 24 h, INS-1 cells, control 100%
experimental-readout: viability at 24 h, 5 mM
# do not omit the unit; it follows the number

Note viability at 24 h, 5 mM for the compound shown: CCCCCCCCCCCCCCCC(=O)O
42.1%

###

assay: Cell viability by MTT test; format: cell-based, rat; settings: rat; 1.5 mM palmitic acid, 24 h, INS-1 cells, control 100%
experimental-readout: viability at 24 h, 1.5 mM

Return viability at 24 h, 1.5 mM for the following compound: CCCCCCCCCCCCCCCC(=O)O
69.9%

###

test: Cell viability by MTT test; type: cell-based, rat; settings: rat; 1 mM palmitic acid, 24 h, INS-1 cells, control 100%
experimental-readout: viability at 24 h, 1 mM (%)
Value expressed in %; do not type the unit.

State its viability at 24 h, 1 mM: CCCCCCCCCCCCCCCC(=O)O
74.8

###

experiment: Cell viability by MTT test; format: cell-based, rat; details: rat; 3.25 mM palmitic acid, 24 h, INS-1 cells, control 100%
experimental-readout: viability at 24 h, 3.25 mM (%)
Your answer should be a plain number; it is taken to be in %.

Hello, please tell me recorded viability at 24 h, 3.25 mM for this one: CCCCCCCCCCCCCCCC(=O)O
44.1

###

test: Cell viability by MTT test; assay type: cell-based, rat; conditions: rat; 2.5 mM palmitic acid, 24 h, INS-1 cells, control 100%
experimental-readout: viability at 24 h, 2.5 mM (%)
# number only, unit % dropped from output

Look up viability at 24 h, 2.5 mM of CCCCCCCCCCCCCCCC(=O)O [palmitic acid] and report it.
49.9

###

test: Cell viability by MTT test; assay type: cell-based, rat; settings: rat; 0.5 mM palmitic acid, 24 h, INS-1 cells, control 100%
experimental-readout: viability at 24 h, 0.5 mM (%)
Reply numerically in %, unit not repeated.

Quick one: give measured viability at 24 h, 0.5 mM for CCCCCCCCCCCCCCCC(=O)O [palmitic acid]
81.5

###

experiment: Cell viability by MTT test; assay type: cell-based, rat; conditions: rat; 2.75 mM palmitic acid, 24 h, INS-1 cells, control 100%
experimental-readout: viability at 24 h, 2.75 mM (%)
I only need the number, in %, no unit after it.

In one line, give reported viability at 24 h, 2.75 mM of the entry CCCCCCCCCCCCCCCC(=O)O .
62.9

###

experiment: Cell viability by MTT test; type: cell-based, rat; conditions: rat; 0.25 mM palmitic acid, 24 h, INS-1 cells, control 100%
experimental-readout: viability at 24 h, 0.25 mM (%)
# value in %; strip the unit string

Quickly give me recorded viability at 24 h, 0.25 mM for CCCCCCCCCCCCCCCC(=O)O
92

###

assay: Cell viability by MTT test; assay type: cell-based, rat; settings: rat; 4.25 mM palmitic acid, 24 h, INS-1 cells, control 100%
experimental-readout: viability at 24 h, 4.25 mM (%)
Give a bare numeral; the unit % is implied.

Please indicate viability at 24 h, 4.25 mM recorded for CCCCCCCCCCCCCCCC(=O)O
44.9

###

assay: Cell viability by MTT test; format: cell-based, rat; settings: rat; 3.5 mM palmitic acid, 24 h, INS-1 cells, control 100%
experimental-readout: viability at 24 h, 3.5 mM (%)
A number alone suffices; assume %.

Give viability at 24 h, 3.5 mM for the following compound: CCCCCCCCCCCCCCCC(=O)O
39.4

###

test: Cell viability by MTT test; assay type: cell-based, rat; details: rat; 2.25 mM palmitic acid, 24 h, INS-1 cells, control 100%
experimental-readout: viability at 24 h, 2.25 mM (%)
Respond numerically; units are % and should not be typed.

Give recorded viability at 24 h, 2.25 mM. CCCCCCCCCCCCCCCC(=O)O [palmitic acid]
58.4

###

assay: Cell viability by MTT test; assay type: cell-based, rat; settings: rat; 4 mM palmitic acid (necrotic dose), 24 h, INS-1 cells, control 100%
experimental-readout: viability at 24 h, 4 mM (%)
Please give a number only; it is taken to be in %.

Note down viability at 24 h, 4 mM recorded for CCCCCCCCCCCCCCCC(=O)O
41

###

test: Cell viability by MTT test; assay type: cell-based, rat; settings: rat; 3 mM palmitic acid (necrotic dose), 24 h, INS-1 cells, control 100%
experimental-readout: viability at 24 h, 3 mM (%)
Lab book: enter the figure in %, no units written.

Provide viability at 24 h, 3 mM value for the following molecule: CCCCCCCCCCCCCCCC(=O)O
36.5

###

assay: Cell viability by MTT test; type: cell-based, rat; details: rat; 4.75 mM palmitic acid, 24 h, INS-1 cells, control 100%
experimental-readout: viability at 24 h, 4.75 mM (%)
# unit: % | format: bare number

Look up and state reported viability at 24 h, 4.75 mM for CCCCCCCCCCCCCCCC(=O)O
35.7

###

assay: Cell viability by MTT test; type: cell-based, rat; conditions: rat; 1.75 mM palmitic acid (autophagic dose), 24 h, INS-1 cells, control 100%
experimental-readout: viability at 24 h, 1.75 mM

Quickly give me recorded viability at 24 h, 1.75 mM for CCCCCCCCCCCCCCCC(=O)O
60.6%

###

experiment: Cell viability by MTT test; assay type: cell-based, rat; settings: rat; 0.75 mM palmitic acid, 24 h, INS-1 cells, control 100%
experimental-readout: viability at 24 h, 0.75 mM (%)
Entry rule: numbers only, all in %.

Please list viability at 24 h, 0.75 mM recorded for the molecule CCCCCCCCCCCCCCCC(=O)O
75.6

###

assay: Cell viability by MTT test; format: cell-based, rat; conditions: rat; 3.75 mM palmitic acid, 24 h, INS-1 cells, control 100%
experimental-readout: viability at 24 h, 3.75 mM (%)
Entry rule: numbers only, all in %.

Give the reported viability at 24 h, 3.75 mM for this compound. CCCCCCCCCCCCCCCC(=O)O [palmitic acid]
42.9

Source listed as patent EP3351262A1.
